molecular target: human serum albumin (HSA) (Homo sapiens); experiment: SPR equilibrium binding of carotenoids to immobilized HSA
Sequence (P02768 25-609): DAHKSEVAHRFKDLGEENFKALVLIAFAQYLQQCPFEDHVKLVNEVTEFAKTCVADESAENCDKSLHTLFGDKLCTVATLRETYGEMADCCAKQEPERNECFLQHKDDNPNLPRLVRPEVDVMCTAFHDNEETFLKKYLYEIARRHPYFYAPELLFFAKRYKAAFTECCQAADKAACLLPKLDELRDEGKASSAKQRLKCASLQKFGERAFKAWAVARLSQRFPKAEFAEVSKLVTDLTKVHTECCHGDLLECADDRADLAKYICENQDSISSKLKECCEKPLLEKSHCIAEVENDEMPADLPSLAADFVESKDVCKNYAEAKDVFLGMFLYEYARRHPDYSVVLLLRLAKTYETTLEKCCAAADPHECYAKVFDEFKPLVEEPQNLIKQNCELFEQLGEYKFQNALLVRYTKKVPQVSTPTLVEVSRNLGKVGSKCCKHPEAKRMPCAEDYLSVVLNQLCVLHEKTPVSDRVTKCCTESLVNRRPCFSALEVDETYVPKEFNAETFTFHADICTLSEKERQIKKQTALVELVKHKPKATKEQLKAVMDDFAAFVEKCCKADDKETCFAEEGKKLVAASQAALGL
value type: pKd
pKd here is simply -log10 of the concentration when that concentration is written in mol/L.

Reported pKd, compound CC1=C[C@H](O)CC(C)(C)[C@H]1/C=C/C(C)=C/C=C/C(C)=C/C=C/C=C(C)/C=C/C=C(C)/C=C/C1=C(C)C[C@@H](O)CC1(C)C [Lutein, (3R, 3′R, 6′R)-lutein] : ____
5.94

Reported pKd, compound CC1=C(/C=C/C(C)=C/C=C/C(C)=C/C=C/C=C(C)/C=C/C=C(C)/C=C/C2=C(C)C(=O)[C@@H](O)CC2(C)C)C(C)(C)C[C@H](O)C1=O [Astaxanthin, (3S, 3′S)-astaxanthin] : ____
5.81

Reported pKd, compound CC1=C(/C=C/C(C)=C/C=C/C(C)=C/C=C/C=C(C)/C=C/C=C(C)/C=C/C2=C(C)CCCC2(C)C)C(C)(C)CCC1 [β-Carotene] : ____
5.82

Reported pKd, compound CC1=C(/C=C/C(C)=C/C=C/C(C)=C/C=C/C=C(C)/C=C/C=C(C)/C=C/C2=C(C)C[C@@H](O)CC2(C)C)C(C)(C)C[C@H](O)C1 [Zeaxanthin, (3R, 3′R)-zeaxanthin] : ____
5.80
